Attribution: paper PMC5644278

assay: Plasma pharmacokinetics after single intranasal dose of Gln-1062; assay type: in vivo, human; conditions: male, human, inhaled or intranasal, 33 mg
Measured property: half-life

1) COc1ccc2c3c1O[C@H]1C[C@@H](O)C=C[C@@]31CCN(C)C2    9.24 h

----------
experiment: Plasma pharmacokinetics after single intranasal dose of Gln-1062; format: in vivo, human; conditions: male, human, inhaled or intranasal
Measured property: half-life

1. COc1ccc2c3c1O[C@H]1C[C@@H](O)C=C[C@@]31CCN(C)C2    ~10 h

----------
assay: Plasma pharmacokinetics after single intranasal dose of Gln-1062; format: in vivo, human; conditions: male, human, inhaled or intranasal, 5.5 mg
Measured property: half-life (h)

1) COc1ccc2c3c1O[C@H]1C[C@@H](O)C=C[C@@]31CCN(C)C2 [galantamine]    9.85

----------
assay: Plasma pharmacokinetics after single intranasal dose of Gln-1062; format: in vivo, human; details: male, human, inhaled or intranasal, 5.5 mg
Measured property: Cmax (ng/mL)

1. COc1ccc2c3c1O[C@H]1C[C@@H](O)C=C[C@@]31CCN(C)C2    17.6

----------
test: Plasma pharmacokinetics after single intranasal dose of Gln-1062; format: in vivo, human; conditions: male, human, inhaled or intranasal, 22 mg
Measured property: AUC(0-inf) (ng·h/mL)

1) COc1ccc2c3c1O[C@H]1C[C@@H](O)C=C[C@@]31CCN(C)C2    799

----------
assay: Plasma pharmacokinetics after single intranasal dose of Gln-1062; format: in vivo, human; details: male, human, inhaled or intranasal, 44 mg
Measured property: AUC(0-inf)

1) COc1ccc2c3c1O[C@H]1C[C@@H](O)C=C[C@@]31CCN(C)C2    1530 ng·h/mL

----------
experiment: Plasma pharmacokinetics after single intranasal dose of Gln-1062; assay type: in vivo, human; conditions: male, human, inhaled or intranasal, 44 mg
Measured property: Cmax (ng/mL)

1. COc1ccc2c3c1O[C@H]1C[C@@H](O)C=C[C@@]31CCN(C)C2    74.7

----------
assay: Plasma pharmacokinetics after single intranasal dose of Gln-1062; type: in vivo, human; conditions: male, human, inhaled or intranasal, 22 mg
Measured property: Cmax (ng/mL)

1) COc1ccc2c3c1O[C@H]1C[C@@H](O)C=C[C@@]31CCN(C)C2 [galantamine]    46.5

----------
experiment: Plasma pharmacokinetics after single intranasal dose of Gln-1062; type: in vivo, human; settings: male, human, inhaled or intranasal, 33 mg
Measured property: Cmax (ng/mL)

1. COc1ccc2c3c1O[C@H]1C[C@@H](O)C=C[C@@]31CCN(C)C2 [galantamine]    76.1

----------
experiment: Plasma pharmacokinetics after single intranasal dose of Gln-1062; type: in vivo, human; conditions: male, human, inhaled or intranasal, 11 mg
Measured property: half-life (h)

1) COc1ccc2c3c1O[C@H]1C[C@@H](O)C=C[C@@]31CCN(C)C2 [galantamine]    7.94
